Biological target: EGFR wildtype (WT) (Homo sapiens)
Sequence (P00533 25-1210): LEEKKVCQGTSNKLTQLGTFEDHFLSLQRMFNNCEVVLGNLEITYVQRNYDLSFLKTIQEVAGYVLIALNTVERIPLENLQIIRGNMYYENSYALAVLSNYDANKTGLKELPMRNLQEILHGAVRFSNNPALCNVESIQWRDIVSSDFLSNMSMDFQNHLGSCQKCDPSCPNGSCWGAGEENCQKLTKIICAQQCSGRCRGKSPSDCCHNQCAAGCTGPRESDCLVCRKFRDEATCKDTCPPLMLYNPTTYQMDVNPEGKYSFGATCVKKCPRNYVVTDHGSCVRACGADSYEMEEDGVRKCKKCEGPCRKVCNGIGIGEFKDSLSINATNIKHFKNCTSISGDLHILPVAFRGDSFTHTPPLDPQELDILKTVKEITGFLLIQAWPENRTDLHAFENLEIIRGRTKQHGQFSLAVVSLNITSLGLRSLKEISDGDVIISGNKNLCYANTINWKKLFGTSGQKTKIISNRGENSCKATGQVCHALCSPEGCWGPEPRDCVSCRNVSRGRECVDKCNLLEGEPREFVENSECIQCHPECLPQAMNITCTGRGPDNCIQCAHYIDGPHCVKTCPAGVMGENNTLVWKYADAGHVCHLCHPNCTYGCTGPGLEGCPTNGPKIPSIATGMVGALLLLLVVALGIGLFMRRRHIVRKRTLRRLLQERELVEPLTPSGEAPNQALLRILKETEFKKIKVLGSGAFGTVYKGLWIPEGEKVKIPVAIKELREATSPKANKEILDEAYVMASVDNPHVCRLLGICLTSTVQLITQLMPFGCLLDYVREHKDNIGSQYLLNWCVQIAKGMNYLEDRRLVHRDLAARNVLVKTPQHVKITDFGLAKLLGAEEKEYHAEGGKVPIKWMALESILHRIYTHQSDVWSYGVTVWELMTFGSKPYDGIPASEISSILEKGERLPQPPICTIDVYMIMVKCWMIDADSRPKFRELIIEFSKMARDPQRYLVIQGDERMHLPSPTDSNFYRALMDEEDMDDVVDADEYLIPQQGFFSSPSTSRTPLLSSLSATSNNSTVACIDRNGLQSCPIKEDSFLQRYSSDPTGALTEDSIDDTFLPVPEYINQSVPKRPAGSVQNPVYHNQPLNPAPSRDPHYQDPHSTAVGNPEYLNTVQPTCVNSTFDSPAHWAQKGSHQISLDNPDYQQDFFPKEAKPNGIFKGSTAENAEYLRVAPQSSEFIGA
Assay: Biochemical EGFR kinase inhibition assay (Lance Ultra TR-FRET), wildtype
Conditions: Km ATP; read-out: IC50 WT (nM) Km ATP
Measured Property: IC50
Entry format: amount then unit.

Ask | Need IC50, item O=S(=O)(C1CC1)n1cc(-c2nccc(Nc3cc(NC4CCC(O)CC4)c(C#Cc4cnn(C5CC5(F)F)c4)cn3)n2)cn1 (stereo not shown)
Reply | 114 nM

Ask | Suppose we examine the compound CC1(CO)CCN(c2cc(Nc3ccnc(-c4cnn(S(=O)(=O)C5CC5)c4)n3)ncc2C#Cc2cnn(C3CC3)c2)CC1 ; what IC50 value has been reported?
Reply | 19.6 nM

Ask | Which IC50 reading was recorded for the compound CC(=O)N1CCC(n2cc(C#Cc3cnc(Nc4ccnc(-c5cnn(S(=O)(=O)C6CC6)c5)n4)cc3N3CCC(F)(CO)CC3)cn2)CC1 ?
Reply | 6 nM

Ask | Please give the measured IC50 for this compound: CN(C)CCn1cc(C#Cc2cnc(Nc3ccnc(-c4cnn(S(=O)(=O)C5CC5)c4)n3)cc2N2CCC(F)(CO)CC2)cn1
Reply | 3.7 nM

Ask | What value of IC50 has been recorded for this entry: Cn1cc(C#Cc2cnc(Nc3ccnc(-c4cnn(S(=O)(=O)C5CC5)c4)n3)cc2N2CC(C(C)(C)O)C2)cn1
Reply | 99.6 nM

Ask | I have this compound here, C[C@]1(O)CC[C@@H](Nc2cc(Nc3ccnc(-c4cnn(S(=O)(=O)C5CC5)c4)n3)ncc2C#Cc2cnn(C(F)(F)F)c2)CC1 , and I need its recorded IC50.
Reply | 2520 nM

Ask | I have this compound here, CN(C)Cc1ccc(CNc2cc(Nc3ccnc(-c4cnn(S(=O)(=O)C5CC5)c4)n3)ncc2C#Cc2cnn(CCF)c2)cc1 , and I need its recorded IC50.
Reply | 262 nM

Ask | Entry CN(C)C[C@H]1CC[C@H](COc2cc(Nc3ccnc(-c4cnn(S(=O)(=O)C5CC5)c4)n3)ncc2C#Cc2cnn(C3CC3)c2)CC1 : reported IC50 = ?
Reply | 8.8 nM

Ask | Quick one: IC50 of CC1(O)CC2(CCN(c3cc(Nc4ccnc(-c5cnn(S(=O)(=O)C6CC6)c5)n4)ncc3C#Cc3cnn(C(F)(F)F)c3)CC2)C1 ?
Reply | 89.4 nM

Ask | So what's the measured IC50 for this one? Cn1cc(C#Cc2cnc(Nc3ccnc(-c4cnn(S(=O)(=O)C5CC5)c4)n3)cc2N2CCC3(CCNC3=O)CC2)cn1
Reply | 6.1 nM

Ask | Need IC50, item CN(C)CCNC1CCN(c2cc(Nc3ccnc(-c4cnn(S(=O)(=O)C5CC5)c4)n3)ncc2C#Cc2ccn(C)n2)CC1
Reply | 31.3 nM

Ask | Please give the measured IC50 for this compound: CC(C)Nc1cc(Nc2ccnc(-c3cnn(S(=O)(=O)C4CC4)c3)n2)ncc1C#Cc1cnn(C)c1
Reply | 213 nM

Ask | Fill in: IC50 of CC(=O)N1CCC(n2cc(C#Cc3cnc(Nc4ccnc(-c5cnn(S(=O)(=O)C6CC6)c5)n4)cc3N3CCC(F)CC3)cn2)CC1 is ___
Reply | 21.3 nM

---

Target: EGFR L858R/T790M/C797S (Homo sapiens, UniProt P00533, C797S/L858R/T790M)
Sequence (P00533 25-1210 T790M/C797S/L858R): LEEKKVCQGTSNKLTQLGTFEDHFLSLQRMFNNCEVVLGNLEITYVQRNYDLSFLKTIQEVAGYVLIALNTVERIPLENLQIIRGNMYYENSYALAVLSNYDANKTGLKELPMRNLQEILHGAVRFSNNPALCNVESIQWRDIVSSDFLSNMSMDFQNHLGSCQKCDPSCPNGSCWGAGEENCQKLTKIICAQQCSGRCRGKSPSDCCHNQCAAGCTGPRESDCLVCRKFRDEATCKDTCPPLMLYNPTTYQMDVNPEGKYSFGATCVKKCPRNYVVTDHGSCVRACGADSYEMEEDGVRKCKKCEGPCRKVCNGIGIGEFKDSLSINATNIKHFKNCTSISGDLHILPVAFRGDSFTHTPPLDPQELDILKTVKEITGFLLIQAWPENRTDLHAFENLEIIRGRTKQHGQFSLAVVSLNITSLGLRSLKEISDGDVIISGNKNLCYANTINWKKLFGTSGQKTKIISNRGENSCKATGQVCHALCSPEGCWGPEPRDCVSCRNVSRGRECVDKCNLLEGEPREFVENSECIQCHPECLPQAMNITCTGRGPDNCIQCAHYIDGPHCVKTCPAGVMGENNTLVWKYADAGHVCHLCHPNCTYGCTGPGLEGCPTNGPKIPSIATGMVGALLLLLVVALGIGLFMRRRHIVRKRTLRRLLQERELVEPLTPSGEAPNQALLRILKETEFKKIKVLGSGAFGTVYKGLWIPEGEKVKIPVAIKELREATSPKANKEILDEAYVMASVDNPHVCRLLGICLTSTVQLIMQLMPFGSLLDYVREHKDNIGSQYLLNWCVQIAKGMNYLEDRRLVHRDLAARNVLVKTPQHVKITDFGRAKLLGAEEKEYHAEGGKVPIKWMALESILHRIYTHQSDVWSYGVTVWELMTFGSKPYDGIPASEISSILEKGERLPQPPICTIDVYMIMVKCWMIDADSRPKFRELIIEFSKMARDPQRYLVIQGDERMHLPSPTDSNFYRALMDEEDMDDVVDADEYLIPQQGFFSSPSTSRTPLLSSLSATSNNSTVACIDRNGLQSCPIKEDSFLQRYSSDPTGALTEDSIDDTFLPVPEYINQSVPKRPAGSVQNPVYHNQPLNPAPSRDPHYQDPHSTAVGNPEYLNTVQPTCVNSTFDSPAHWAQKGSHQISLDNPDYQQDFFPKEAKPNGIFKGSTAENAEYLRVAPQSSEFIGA
Experiment: Biochemical EGFR kinase inhibition assay (Lance Ultra TR-FRET), triple mutant L858R/T790M/C797S
Conditions: IC50 L858R/T790M/C797S (nM), 100 μM ATP
Where a name gives a salt, the structure may show the parent alone.
Label YES when IC50 < 0.3 nM; otherwise NO.

Ask | A record lists O=S(=O)(C1CC1)n1cc(-c2nccc(Nc3cc(N4CCN(CCO)CC4)c(C#Cc4cnn(CCF)c4)cn3)n2)cn1 [Example 16] . Is its IC50 below 0.3 nM?
Reply | NO

Ask | A record lists CNCCC1CCN(c2cc(Nc3ccnc(-c4cnn(S(=O)(=O)C5CC5)c4)n3)ncc2C#Cc2cnn(C)c2)CC1 [Example 153] . Is its IC50 below 0.3 nM?
Reply | YES

Ask | Consider CN(C)CCNC1CCN(c2cc(Nc3ccnc(-c4cnn(S(=O)(=O)C5CC5)c4)n3)ncc2C#Cc2cnn(C3CCOCC3)c2)CC1 [Example 138] . Does its IC50 lie strictly below 0.3 nM?
Reply | NO

Ask | Please determine if CC1(CO)CCN(c2cc(Nc3ccnc(-c4cnn(S(=O)(=O)C5CC5)c4)n3)ncc2C#CC2(O)CCCCC2)CC1 [Example 175] is below 0.3 nM in terms of IC50.
Reply | NO

Ask | Please indicate whether the reported IC50 of CN1CCC2(CCN(c3cc(Nc4ccnc(-c5cnn(S(=O)(=O)C6CC6)c5)n4)ncc3C#Cc3cnn(C)c3)CC2)C1 [Example 297, formate] is strictly below 0.3 nM.
Reply | YES

Ask | I'd appreciate it if you could check whether C[C@]1(O)CC[C@@H](Nc2cc(Nc3ccnc(-c4cnn(S(=O)(=O)C5CC5)c4)n3)ncc2C#Cc2cnn(CC(F)F)c2)CC1 [Example 323] has IC50 smaller than 0.3 nM.
Reply | NO

Ask | In the record for Cn1cc(C#Cc2cnc(Nc3ccnc(-c4cnn(S(=O)(=O)C5CC5)c4)n3)cc2N2CCC(O)CC2)cn1 [Example 27] , is IC50 less than 0.3 nM?
Reply | NO

Ask | Strictly below 0.3 nM in IC50? O=S1(=O)CCC(C#Cc2cnc(Nc3ccnc(-c4cnn(S(=O)(=O)C5CC5)c4)n3)cc2NC2CCC(CO)CC2)C1 (stereo not shown) [Example 428]
Reply | YES

Ask | # strict comparison: is reported IC50 < 0.3 nM? input = CC1(CO)CCN(c2cc(Nc3ccnc(-c4cnn(S(=O)(=O)C5CC5)c4)n3)ncc2C#Cc2ccc(CN3CCOCC3)cn2)CC1 [Example 185]
Reply | NO

Ask | Is IC50 strictly under 0.3 nM for the entry CC(C)(O)[C@H]1CC[C@@H](Nc2cc(Nc3ccnc(-c4cnn(S(=O)(=O)C5CC5)c4)n3)ncc2C#Cc2ccc(CN3CCOCC3)cc2)CC1 [Example 162] ?
Reply | NO

Ask | Lab note: confirm whether the reported IC50 for this molecule is below 0.3 nM, equality not counting. molecule: O=S(=O)(C1CC1)n1cc(-c2nccc(Nc3cc(N4CCC5(CCO5)CC4)c(C#Cc4cccnc4)cn3)n2)cn1 [Example 283]
Reply | NO

---

Target: EGFR L858R/T790M/C797S (Homo sapiens, UniProt P00533, C797S/L858R/T790M)
Assay: Biochemical EGFR kinase inhibition assay (Lance Ultra TR-FRET), triple mutant L858R/T790M/C797S
Settings: ATP at Km; read-out: IC50 L858R/T790M/C797S (nM), Km ATP
Consider the following compounds; for each one, report its IC50.
Give just the number in nM; leave the unit off.

Ask | What IC50 value was documented for this compound, CN(C)CC1(F)CCN(c2cc(Nc3ccnc(-c4cnn(S(=O)(=O)C5CC5)c4)n3)ncc2C#Cc2cnn(C3CC3)c2)CC1 ?
Reply | 1.1

Ask | Need IC50, item CC1(CO)CCN(c2cc(Nc3ccnc(-c4cnn(S(=O)(=O)C5CC5)c4)n3)ncc2C#CCCO)CC1
Reply | 0.1

Ask | Can you look up the measured IC50 of CN1CCC(C#Cc2cnc(Nc3ccnc(-c4cnn(S(=O)(=O)C5CC5)c4)n3)cc2N2CCC(C)(CO)CC2)C1 (centres unmarked) for me?
Reply | 0.1

Ask | I am curious: what IC50 value has been reported for CN(C)C[C@H]1CC[C@@H](Nc2cc(Nc3ccnc(-c4cnn(S(=O)(=O)C5CC5)c4)n3)ncc2C#Cc2cnn(C)c2)CC1 ?
Reply | 0.1

Ask | Can you look up the measured IC50 of CC1(CO)CCN(c2cc(Nc3ccnc(-c4cnn(S(=O)(=O)C5CC5)c4)n3)ncc2C#Cc2cnn(CC3COCCO3)c2)CC1 (centres unmarked) for me?
Reply | 0.4

---

Target: EGFR L858R/C797S (Homo sapiens, UniProt P00533, C797S/L858R)
Sequence (P00533 25-1210 C797S/L858R): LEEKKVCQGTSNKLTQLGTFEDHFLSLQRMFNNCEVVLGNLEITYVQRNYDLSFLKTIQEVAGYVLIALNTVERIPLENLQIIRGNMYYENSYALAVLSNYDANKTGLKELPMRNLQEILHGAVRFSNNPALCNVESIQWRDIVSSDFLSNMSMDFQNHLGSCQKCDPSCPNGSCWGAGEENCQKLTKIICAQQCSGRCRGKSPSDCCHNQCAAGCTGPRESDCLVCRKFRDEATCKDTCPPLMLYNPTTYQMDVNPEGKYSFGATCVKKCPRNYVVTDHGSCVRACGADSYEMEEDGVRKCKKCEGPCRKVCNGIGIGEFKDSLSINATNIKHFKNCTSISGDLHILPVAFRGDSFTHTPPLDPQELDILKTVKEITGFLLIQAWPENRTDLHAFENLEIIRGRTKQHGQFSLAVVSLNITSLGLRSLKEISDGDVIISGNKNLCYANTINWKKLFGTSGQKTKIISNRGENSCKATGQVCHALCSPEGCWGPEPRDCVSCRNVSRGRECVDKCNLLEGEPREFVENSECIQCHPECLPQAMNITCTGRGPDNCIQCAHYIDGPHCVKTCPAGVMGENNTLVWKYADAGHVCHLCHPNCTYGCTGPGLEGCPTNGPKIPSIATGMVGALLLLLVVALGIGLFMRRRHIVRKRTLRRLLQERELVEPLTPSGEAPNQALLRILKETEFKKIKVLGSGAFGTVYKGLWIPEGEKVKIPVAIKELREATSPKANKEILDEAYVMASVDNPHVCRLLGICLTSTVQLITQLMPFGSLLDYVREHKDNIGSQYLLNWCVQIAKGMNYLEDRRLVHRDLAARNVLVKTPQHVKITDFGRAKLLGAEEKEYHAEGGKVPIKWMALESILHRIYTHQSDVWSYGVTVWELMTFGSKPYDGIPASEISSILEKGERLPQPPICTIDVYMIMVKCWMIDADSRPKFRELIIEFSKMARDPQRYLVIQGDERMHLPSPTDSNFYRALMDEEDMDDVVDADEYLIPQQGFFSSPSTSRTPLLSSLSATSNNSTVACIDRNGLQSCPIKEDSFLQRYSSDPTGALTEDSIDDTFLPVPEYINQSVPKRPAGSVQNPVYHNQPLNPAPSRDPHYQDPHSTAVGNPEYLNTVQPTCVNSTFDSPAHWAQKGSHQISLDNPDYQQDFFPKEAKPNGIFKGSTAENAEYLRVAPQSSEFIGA
Assay: Biochemical EGFR kinase inhibition assay (Lance Ultra TR-FRET), double mutant L858R/C797S
Settings: Km ATP; read-out: IC50 L858R/C797S (nM), Km ATP
Field: label. Allowed values: satisfied (IC50 < 10 nM) or not satisfied (IC50 >= 10 nM).

Ask | Please indicate whether the reported IC50 of O=S(=O)(C1CC1)n1cc(-c2nccc(Nc3cc(N4CCC[C@@H](O)C4)c(C#Cc4cnn(CCF)c4)cn3)n2)cn1 is strictly below 10 nM.
Reply | not satisfied

Ask | IC50 under 10 nM? Item: O=S(=O)(C1CC1)n1cc(-c2nccc(Nc3cc(NCC4CCC(O)CC4)c(C#CC4CCCO4)cn3)n2)cn1 (stereo not shown)
Reply | not satisfied

Ask | Problem: For the compound CC1(C#Cc2cnc(Nc3ccnc(-c4cnn(S(=O)(=O)C5CC5)c4)n3)cc2N2CCC(C)(CO)CC2)CC1 , is IC50 under 10 nM?
Reply | satisfied

Ask | Dear colleague, could you confirm whether IC50 of C[C@]1(O)CC[C@H](CNc2cc(Nc3ccnc(-c4cnn(S(=O)(=O)C5CC5)c4)n3)ncc2C#Cc2cnn(CCF)c2)CC1 falls below 10 nM? Thanks.
Reply | not satisfied

Ask | Hello, I'm reviewing records and need to know if IC50 of COC1(O)CCN(c2cc(Nc3ccnc(-c4cnn(S(=O)(=O)C5CC5)c4)n3)ncc2C#Cc2ccc(CN3CCN(C)CC3)cc2)CC1 is below 10 nM. Could you check?
Reply | satisfied

Ask | A record lists CC1OCCC1C#Cc1cnc(Nc2ccnc(-c3cnn(S(=O)(=O)C4CC4)c3)n2)cc1NC1CCC(CO)CC1 (stereo not shown) . Is its IC50 below 10 nM?
Reply | satisfied

Ask | Is the reported IC50 for O=S(=O)(C1CC1)n1cc(-c2nccc(Nc3cc(N4CCC(F)(CO)CC4)c(C#Cc4cnn(CC(F)(F)F)c4)cn3)n2)cn1 strictly below 10 nM?
Reply | satisfied

Ask | Lab note: confirm whether the reported IC50 for this compound is below 10 nM, equality not counting. compound: C[C@]1(O)CC[C@@H](Nc2cc(Nc3ccnc(-c4cnn(S(=O)(=O)C5CC5)c4)n3)ncc2C#Cc2cnn(CC(F)(F)F)c2)CC1
Reply | not satisfied

Ask | Bench note: check whether O=S(=O)(C1CC1)n1cc(-c2nccc(Nc3cc(N4CCC[C@H](O)C4)c(C#Cc4cnn(C(F)(F)F)c4)cn3)n2)cn1 shows IC50 below 10 nM
Reply | not satisfied

Ask | Please determine if O=S(=O)(C1CC1)n1cc(-c2nccc(Nc3cc(NC4CCC(CO)CC4)c(C#CC4CCCO4)cn3)n2)cn1 (stereo not shown) is below 10 nM in terms of IC50.
Reply | satisfied

Ask | Say whether its IC50 is strictly beneath 10 nM. Entry: CN1CCC(C#Cc2cnc(Nc3ccnc(-c4cnn(S(=O)(=O)C5CC5)c4)n3)cc2N2CCC3(CCO3)CC2)C1 (stereo not shown)
Reply | satisfied

Ask | Does the reported IC50 of CS(=O)(=O)N1CCC(C#Cc2cnc(Nc3ccnc(-c4cnn(S(=O)(=O)C5CC5)c4)n3)cc2N[C@H]2CC[C@@H](CO)CC2)CC1 stay below 10 nM?
Reply | satisfied

Ask | Item O=S(=O)(C1CC1)n1cc(-c2nccc(Nc3cc(N4CCC(F)(CO)CC4)c(C#Cc4cnn(C(F)(F)F)c4)cn3)n2)cn1 : IC50 beneath 10 nM, strictly?
Reply | not satisfied
